# methodDescription: Agilent ZORBAX 300 SB-C18, 150 × 1 mm, 3.5 µm; A: water + 0.01% heptafluorobutyric acid; B: acetonitrile + 0.01% heptafluorobutyric acid; gradient (min/%B) 0/0 100/90
# runParameters: stereoisomer not certain
observable: LC retention time (min)
A number alone suffices; assume min.

Previously resolved entries follow.
| molecule | observable | assayResult |
| --- | --- | --- |
| O=Cc1c(-c2ccccc2)c(C=O)n2ccccc12 | LC retention time | 13.9 |
| CCN(CC)c1ccc(C=NNC(=O)C(C)Nc2ccc3ccccc3c2)cc1 (stereo unspecified) | LC retention time | 14.3 |
| O=c1cnc(-c2ccccc2)c(-c2ccccc2)[nH]1 | LC retention time | 11.1 |
| O=C(C=Cc1ccccc1)c1ccc(O)cc1O | LC retention time | 14.3 |
| COC(=O)c1nnc(-c2ccccc2)c(-c2ccccc2)n1 | LC retention time | 13.6 |

Tell me the measured LC retention time of CNC(=O)CC1Nc2ccccc2NC1=O (stereo unspecified) , please.
7.34

Tell me the measured LC retention time of CCOC(=O)C1=C(C(=O)OC)CN(c2ccccc2)N1 , please.
13.7

Tell me the measured LC retention time of COc1ccc2ccccc2c1C=NNC(=O)C(c1ccccc1)c1ccccc1 , please.
17.5

---

# methodDescription: Agilent ZORBAX 300 SB-C18, 150 × 1 mm, 3.5 µm; A: water + 0.01% heptafluorobutyric acid; B: acetonitrile + 0.01% heptafluorobutyric acid; gradient (min/%B) 0/0 100/90
# runParameters: stereoisomer not certain
observable: LC retention time
Report field: quantity (unit follows the number).

Previously resolved entries follow.
| compound | observable | assayResult |
| --- | --- | --- |
| Nc1ccnc2ccccc12 | LC retention time | 7.32 min |
| CC(=O)NC(Cc1ccc(O)cc1)C(N)=O (stereo not drawn) | LC retention time | 6.07 min |
| CC(=O)N1C(=O)N(C(C)=O)C(O)C1O (stereo not drawn) | LC retention time | 6.42 min |
| O=C(O)c1ccccc1CN1CCCC1 | LC retention time | 7.5 min |
| Nc1ccc2c(c1)SSc1cc(N)ccc1-2 | LC retention time | 10.3 min |

Next:
Tell me the measured LC retention time of Cc1cccc(OCC(O)CNC(C)C)c1 (stereo not drawn) , please.
9.65 min

---

# methodDescription: Agilent ZORBAX 300 SB-C18, 150 × 1 mm, 3.5 µm; A: water + 0.01% heptafluorobutyric acid; B: acetonitrile + 0.01% heptafluorobutyric acid; gradient (min/%B) 0/0 100/90
# runParameters: stereoisomer not certain
Below, each entry is listed with its recorded LC retention time.
A number alone suffices; assume min.

| compound | observable | assayResult |
| --- | --- | --- |
| C=CCNC1CCCC1 | LC retention time | 7.45 |
| Cc1cn(-c2ccccc2)[nH]c1=O | LC retention time | 10.8 |
| CCn1c(C)c(C(C)=O)c(C(C)=O)c1C | LC retention time | 9.56 |
| Cc1cc2c(s1)Nc1ccccc1N=C2N | LC retention time | 9.24 |
| c1ccc2c(c1)Cc1cc3ccccc3nc1-2 | LC retention time | 11.4 |
| CC(C)NC(=S)N1CCC(Cc2ccccc2)CC1 | LC retention time | 16 |

Tell me the measured LC retention time of CCOc1cc(C(=O)Nc2ccc(OC)c(OC)c2)cc(OCC)c1OCC , please.
14.4

Tell me the measured LC retention time of Cc1ccc(-c2cnc3ccccc3[n+]2C)c(C)c1 , please.
10.4

Tell me the measured LC retention time of NCCCSc1ccccc1 , please.
8.67

Tell me the measured LC retention time of Cn1c2c(c(=O)n(C)c1=O)C(CC(=O)O)C(=O)N2 (stereo not given) , please.
6.06

Tell me the measured LC retention time of CNCc1cccc(OC)c1OC , please.
7.9

---

# methodDescription: Agilent ZORBAX 300 SB-C18, 150 × 1 mm, 3.5 µm; A: water + 0.01% heptafluorobutyric acid; B: acetonitrile + 0.01% heptafluorobutyric acid; gradient (min/%B) 0/0 100/90
# runParameters: stereoisomer not certain
Decision: LC retention time compared against 10 min; not below it gives Yes, below it gives No.

Reported LC retention time at or above 10 min? Nc1ccc(C(=O)O)cc1N
No

Reported LC retention time at or above 10 min? Cc1cc(C)n(CCO)c(=O)n1
No

Reported LC retention time at or above 10 min? CC1(C)SC2C(NC(=O)C(N)c3ccc(O)cc3)C(=O)N2C1C(=O)O (configuration not stated)
No

Reported LC retention time at or above 10 min? CC(C)(C)c1ccc(C(=O)NN=Cc2cccnc2)cc1
Yes

Reported LC retention time at or above 10 min? OC(CCN1CCCC1)(c1ccccc1)C1CCCCC1 (configuration not stated)
Yes

---

# methodDescription: Agilent ZORBAX 300 SB-C18, 150 × 1 mm, 3.5 µm; A: water + 0.01% heptafluorobutyric acid; B: acetonitrile + 0.01% heptafluorobutyric acid; gradient (min/%B) 0/0 100/90
# runParameters: stereoisomer not certain
Decision: LC retention time compared against 9 min; not below it gives true, below it gives false.

# example entries with known answers
| molecule | answerLabel |
| --- | --- |
| NC1C(O)OC(CO)C(O)C1O (configuration not stated) | false |
| Cc1ccc(C(=O)c2cccc(N)c2)cc1C | true |
| CC1=NN(Cc2c[nH]c3ccccc23)C(C)(C)C1 | true |
| O=C(C=Cc1ccccc1)c1cc(O)ccc1O | true |
| CCN(CC)CCCN | false |

Reported LC retention time at or above 9 min? CN(C)CCCNCCCN
false

Reported LC retention time at or above 9 min? Nc1ccc(-c2cccs2)cc1
true

Reported LC retention time at or above 9 min? Nc1ccc2c(c1)oc1ccccc12
true

---

# methodDescription: Agilent ZORBAX 300 SB-C18, 150 × 1 mm, 3.5 µm; A: water + 0.01% heptafluorobutyric acid; B: acetonitrile + 0.01% heptafluorobutyric acid; gradient (min/%B) 0/0 100/90
# runParameters: stereoisomer not certain
Field 'label' (enum: Fulfilled / Not fulfilled). Set to Fulfilled when LC retention time is strictly under 8 min; else Not fulfilled.

# example entries with known answers
| compound | answerLabel |
| --- | --- |
| CN1CCCN(C)C1=O | Fulfilled |
| CCCC(=O)C1CCNCC1 | Fulfilled |
| Nc1nc(N)nc(N)n1 | Fulfilled |
| O=C(O)C1(c2ccccc2)CCCCN1 (stereo not drawn) | Fulfilled |

Is it true that LC retention time reported for O=C(CN1C(=O)c2ccccc2C1=O)Nc1ccccc1C(=O)N1CCN(c2ccccc2)CC1 is less than 8 min?
Not fulfilled

Is it true that LC retention time reported for Cc1c(C(=O)N(C)c2ccccc2)oc2ccccc12 is less than 8 min?
Not fulfilled

Is it true that LC retention time reported for O=C(O)Cn1cnc2ccccc2c1=O is less than 8 min?
Fulfilled

Is it true that LC retention time reported for Cn1nc(-c2ccccc2)c(-c2ccccc2)c(C(=O)O)c1=O is less than 8 min?
Not fulfilled

Is it true that LC retention time reported for Cc1ccc(C(=O)NCc2ccco2)cc1 is less than 8 min?
Not fulfilled

Is it true that LC retention time reported for O=c1nc(NN=Cc2cccnc2)cn[nH]1 is less than 8 min?
Fulfilled

Is it true that LC retention time reported for NNC(=S)Nc1ccccc1 is less than 8 min?
Not fulfilled

---

# methodDescription: Agilent ZORBAX 300 SB-C18, 150 × 1 mm, 3.5 µm; A: water + 0.01% heptafluorobutyric acid; B: acetonitrile + 0.01% heptafluorobutyric acid; gradient (min/%B) 0/0 100/90
# runParameters: stereoisomer not certain
observable: LC retention time

| compound | LC retention time |
| --- | --- |
| COC(=O)c1c(C)[nH]c(-c2ccccc2)c1-c1ccccc1 | 15.6 min |
| C#CCN(CC)CC#C | 6.73 min |

Tell me the measured LC retention time of Cc1cc(C)c(CO)cc1C=NNC(N)=O , please.
8.66 min

Tell me the measured LC retention time of C=CCN(CC=C)CC=C , please.
7.98 min

Tell me the measured LC retention time of COc1ccc(N2C(=O)C=CC2=O)cc1 , please.
9.62 min

---

Below, each entry is listed with its recorded LC retention time.
# methodDescription: Agilent ZORBAX 300 SB-C18, 150 × 1 mm, 3.5 µm; A: water + 0.01% heptafluorobutyric acid; B: acetonitrile + 0.01% heptafluorobutyric acid; gradient (min/%B) 0/0 100/90
# runParameters: stereoisomer not certain
A number alone suffices; assume min.

| molecule | LC retention time (min) |
| --- | --- |
| COc1ccccc1OCCN1CCNCC1 | 8.16 |

Tell me the measured LC retention time of Cc1cc(C)nc(SCc2nc3ccccc3nc2C)n1 , please.
13.2

Tell me the measured LC retention time of CC(C)CN , please.
6.34

Tell me the measured LC retention time of c1ccc(Cn2c3ccccc3c3ccccc32)cc1 , please.
18.8
